% of cells in gate P3 at 100 nM: recorded values
tgt: T1, Tim3 (NCBI Reference Sequence: NP_116171.3) on Tim3-CHO cells (UniProt Q8TDQ0 22-301, limits assumed)
T1 construct: whole, on cells
measurement.notes: flow cytometry on Tim3-CHO cells; blank P3 0.2%; the filing says V1-V5 did not bind
Please give a number only; it is taken to be in %.

# binder, % of cells in gate P3 at 100 nM, %
data = [
    ("Antibody V2 (antibody, human IgG1, kappa, V domains shown, Humanized from chimeric antibody M1; also called humanized antibody V2) VH: EVQLVQSGAEVKKSGESLKISCKASGYTFTDYDINWVRQMPGKGLEWIGWIFPGDDTTKYNEKFKGQVTLSADKSTNTAYMQWSSLKASDTAMYYCARSPSFDYWGQGTLVTVSS VL: QIVLTQSPGTLSLSPGERATLSCSASSTIGFMYWYQQKPGQAPRRWIYDTSKLASGVPDRFSVSGSGTDYTLTISRLEPEDFAVYYCHQRSSYPTFGQGTKVEIKR", 1.8),
    ("Antibody V3 (antibody, human IgG1, kappa, V domains shown, Humanized from chimeric antibody M1; also called humanized antibody V3) VH: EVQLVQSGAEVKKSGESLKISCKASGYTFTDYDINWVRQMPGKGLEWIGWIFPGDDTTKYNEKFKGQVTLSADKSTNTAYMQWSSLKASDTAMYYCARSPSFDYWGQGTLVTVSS VL: QIVLTQSPGTLSLSPGERATLSCSASSTIGFMYWYQQKPGQAPRRWIYDTSKLASGVPDRFSGSGSGTDYTLTISRLEPEDFAVYYCHQRSSYPTFGQGTKVEIKR", 0.4),
    ("Antibody V5 (antibody, human IgG1, kappa, V domains shown, Humanized from chimeric antibody M1; also called humanized antibody V5) VH: QVQLVQSGAEVKKPGASVKVSCKASGYTFTDYDINWVRQAPGQRLEWIGWIFPGDDTTKYNEKFKGRATLTADKSASTAYMELSSLRSEDTAVYYCARSPSFDYWGQGTLVTVSS VL: QIVLTQSPSSLSASVGDRVTITCSASSTIGFMYWYQQKPGKAPKRWIYDTSKLASGVPSRFSVSGSGTDYTLTISSLQPEDFATYYCHQRSSYPTFGQGTKVEIKR", 0.1),
]

Request: Can you share its % of cells in gate P3 at 100 nM? I mean this binder: Antibody V1 (antibody, human IgG1, kappa, V domains shown, Humanized from chimeric antibody M1; also called humanized antibody V1) VH: EVQLVQSGAEVKKSGESLKISCKASGYTFTDYDINWVRQMPGKGLEWMGWIFPGDDTTKYNEKFKGQVTISADKSTNTAYLQWSSLKASDTAMYYCARSPSFDYWGQGTLVTVSS VL: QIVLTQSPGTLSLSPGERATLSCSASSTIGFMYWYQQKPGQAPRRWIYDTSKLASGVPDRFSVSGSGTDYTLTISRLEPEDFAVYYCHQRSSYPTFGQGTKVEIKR
Response: 1.7
